molecular target: DGKα-YFP in Jurkat cells (Homo sapiens (Human), UniProt P23743); test: In vitro DGKα translocation assay; conditions: 1 hour at 37° C., top concentration 10 μM, read-out: DGKalpha Translocation EC50
Sequence (P23743 whole entry): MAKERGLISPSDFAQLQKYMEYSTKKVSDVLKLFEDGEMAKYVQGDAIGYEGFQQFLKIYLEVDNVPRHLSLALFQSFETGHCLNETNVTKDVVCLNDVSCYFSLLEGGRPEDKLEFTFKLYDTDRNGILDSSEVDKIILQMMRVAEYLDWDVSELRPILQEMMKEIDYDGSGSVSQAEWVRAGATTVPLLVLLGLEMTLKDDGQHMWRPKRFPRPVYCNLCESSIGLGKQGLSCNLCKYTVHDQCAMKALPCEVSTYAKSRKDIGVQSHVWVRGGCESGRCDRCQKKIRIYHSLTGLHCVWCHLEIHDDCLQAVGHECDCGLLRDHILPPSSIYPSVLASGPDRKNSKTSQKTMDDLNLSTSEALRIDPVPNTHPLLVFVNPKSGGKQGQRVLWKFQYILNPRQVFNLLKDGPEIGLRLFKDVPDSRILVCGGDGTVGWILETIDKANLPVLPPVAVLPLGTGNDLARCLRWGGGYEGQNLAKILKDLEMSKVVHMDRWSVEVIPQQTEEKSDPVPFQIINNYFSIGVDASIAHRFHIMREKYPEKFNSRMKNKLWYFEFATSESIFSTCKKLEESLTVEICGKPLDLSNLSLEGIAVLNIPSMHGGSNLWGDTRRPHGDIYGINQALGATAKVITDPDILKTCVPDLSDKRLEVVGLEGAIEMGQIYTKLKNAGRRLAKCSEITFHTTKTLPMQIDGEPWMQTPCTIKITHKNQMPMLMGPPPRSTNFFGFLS
Listed here are compounds together with their documented EC50.
Report the figure in µM without appending any unit label.

Worked examples, 5 compounds total:
Compound	EC50 [µM]
CN(Cc1nnnn1-c1ccc(F)c(C#N)c1)C1CCCCC1 [Example 21]	1.2
C=CCN(Cc1nnnn1-c1ccc(Cl)c(C#N)c1)C1CCCCC1 [Example 6]	0.19
CCCN(Cc1nnnn1-c1ccc(Cl)c(C#N)c1)C1CCCCC1 [Example 8]	0.35
COc1ccc(-n2nnnc2CN(C)C2CCCCC2)cc1C#N [Example 24]	1.7
CCN(Cc1nnnn1-c1ccc(Cl)c(C#N)c1)C1CCCCC1 [Example 13]	0.12

For CC1CCC(N(C)Cc2nnnn2-c2cccc([N+](=O)[O-])c2)CC1 (centres unmarked) [Example 2] the compound record lists EC50 as 0.3

Measured EC50, C=CCN(Cc1nnnn1-c1ccc(Cl)c(C#N)n1)C1CCCCC1 [Example 17] : 0.47

Record CN(Cc1nnnn1-c1cc(C#N)cc([N+](=O)[O-])c1)C1CCCCC1 [Example 27] , field EC50: 0.49

Item: N#Cc1nc(-n2nnnc2CN(CC2CC2)C2CCCCC2)ccc1Cl [Example 15] | EC50: 2.1

Sure, the documented EC50 for CCCCN(Cc1nnnn1-c1ccc(Cl)c(C#N)c1)C1CCCCC1 [Example 5] is 1.2

Record summary for Cc1ccc(-n2nnnc2CN(C)C2CCCCC2)cc1C#N [Example 25] : reported EC50 = 0.35
